- Test system: K. pneumo JMI 2697
- protocol: MIC, antibacterial and synergistic activity
- Type: cell-based
- experimentalConditions: K. pneumo JMI 2697 (IMP-4 (Cpase)); Aztreonam + inhibitor at 4 µg/mL
measuredParameter: MIC Aztreonam + inhibitor

{"columns": ["compound", "measuredParameter", "resultValue"],
 "data": [
  ["O=C(NNC(=O)[C@H]1CC[C@H]2CN1C(=O)N2OS(=O)(=O)O)C1CNC1 (stereo in doubt) [Ex. 9]", "MIC Aztreonam + inhibitor", "≤0.06 µg/mL"],
  ["O=C(NO[C@H]1CCCNC1)[C@@H]1CC[C@@H]2CN1C(=O)N2OS(=O)(=O)O [Ex. 2]", "MIC Aztreonam + inhibitor", "≤.062 µg/mL"],
  ["CC(=O)NNC(=O)[C@@H]1CC[C@@H]2CN1C(=O)N2OS(=O)(=O)O [Ex. 5]", "MIC Aztreonam + inhibitor", "≤0.062 µg/mL"],
  ["O=C(NNC(=O)[C@H]1CC[C@H]2CN1C(=O)N2OS(=O)(=O)O)C1CC1 (stereo in doubt) [Ex. 7]", "MIC Aztreonam + inhibitor", "≤0.062 µg/mL"],
  ["O=C(NO[C@H]1CCNC1)[C@@H]1CC[C@@H]2CN1C(=O)N2OS(=O)(=O)O [Ex. 1]", "MIC Aztreonam + inhibitor", "0.25 µg/mL"],
  ["CCC(=O)NNC(=O)[C@@H]1CC[C@@H]2CN1C(=O)N2OS(=O)(=O)O [Ex. 8]", "MIC Aztreonam + inhibitor", "≤0.062 µg/mL"],
  ["NCCONC(=O)[C@@H]1CC[C@@H]2CN1C(=O)N2OS(=O)(=O)O [Ex. 3]", "MIC Aztreonam + inhibitor", "0.25 µg/mL"]
]}
